# PROTOCOL_TEXT: Example 2: population PK in subjects undergoing cardiac catheterization
# Assay type: in vivo
# EXPERIMENTAL_PARAMETERS: both sexes, human, plasma, single IV bolus 10 to 500 μg, three-compartment model

{"LINE_NOTATION": "CNC(=O)c1cnn(-c2nc(N)c3ncn([C@@H]4O[C@H](CO)[C@@H](O)[C@H]4O)c3n2)c1", "VALUE_UNITS": "mL/min", "clearance": 498}

----------
# System: human platelets
# PROTOCOL_TEXT: Platelet aggregation
# Type: cell-based
# EXPERIMENTAL_PARAMETERS: mean ± SE, read-out: Platelet Aggregation, potency
pIC50: −log10 of the molar value.
EXPERIMENTAL_READOUT: pIC50

{"LINE_NOTATION": "CNC(=O)c1cnn(-c2nc(N)c3ncn([C@@H]4O[C@H](CO)[C@@H](O)[C@H]4O)c3n2)c1", "ASSAYED_SYSTEM": "human platelets", "READOUT_VALUE": 6.36}
